Target: T1, mfPRLR.mmh (soluble monomeric macaca fascicularis PRLR) (macaca fascicularis)
T1 construct: soluble monomeric PRLR protein; also called macaca fascicularis (mf) PRLR.mmh; monkey PRLR
T1 chain: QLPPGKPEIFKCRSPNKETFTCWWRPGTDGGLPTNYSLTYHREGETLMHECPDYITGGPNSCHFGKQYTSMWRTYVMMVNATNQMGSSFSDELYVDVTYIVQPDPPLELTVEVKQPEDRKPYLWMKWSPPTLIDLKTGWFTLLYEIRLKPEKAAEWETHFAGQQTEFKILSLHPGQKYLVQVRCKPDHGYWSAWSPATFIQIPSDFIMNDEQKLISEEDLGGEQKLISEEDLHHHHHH
Experiment: SPR (Biacore), antibody capture, 37 C
Answer each item with its documented T 1/2.
Kindly report the value followed by its unit.

Endpoint output: T 1/2 of H1H6762P (antibody, human IgG1, V domains shown, human IgG1 Fc (H1H)) VH: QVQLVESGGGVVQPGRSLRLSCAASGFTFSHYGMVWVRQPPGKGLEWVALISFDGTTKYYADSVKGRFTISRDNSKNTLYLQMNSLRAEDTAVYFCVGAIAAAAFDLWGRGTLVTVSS VL: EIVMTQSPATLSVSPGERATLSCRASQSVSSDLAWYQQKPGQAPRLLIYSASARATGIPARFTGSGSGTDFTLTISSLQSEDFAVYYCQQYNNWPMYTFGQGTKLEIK . Value?
21 min

Name the reported T 1/2 value associated with the binder H1H6960N (antibody, human IgG1, V domains shown, also called H2M6960N) VH: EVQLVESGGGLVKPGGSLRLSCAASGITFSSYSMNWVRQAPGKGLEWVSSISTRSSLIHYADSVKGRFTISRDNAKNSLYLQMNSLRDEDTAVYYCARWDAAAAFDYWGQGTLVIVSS VL: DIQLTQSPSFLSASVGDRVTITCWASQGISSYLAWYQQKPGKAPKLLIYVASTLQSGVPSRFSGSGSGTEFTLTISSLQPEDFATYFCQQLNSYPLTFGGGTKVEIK
9 min

What measured T 1/2 goes with H1H6953N (antibody, human IgG1, V domains shown, also called H1M6953N) VH: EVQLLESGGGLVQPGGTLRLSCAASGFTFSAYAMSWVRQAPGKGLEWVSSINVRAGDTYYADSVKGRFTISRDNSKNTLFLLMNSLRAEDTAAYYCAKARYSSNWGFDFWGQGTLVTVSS VL: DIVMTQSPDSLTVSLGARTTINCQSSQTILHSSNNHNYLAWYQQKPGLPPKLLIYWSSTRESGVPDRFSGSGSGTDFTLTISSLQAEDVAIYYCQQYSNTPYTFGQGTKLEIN ?
4.5 min

Requested read-out: T 1/2. Entry: H1H6793P (antibody, human IgG1, V domains shown, human IgG1 Fc (H1H)) VH: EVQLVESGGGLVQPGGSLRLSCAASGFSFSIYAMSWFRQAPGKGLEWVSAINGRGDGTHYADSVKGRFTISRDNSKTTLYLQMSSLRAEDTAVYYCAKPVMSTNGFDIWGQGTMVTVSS VL: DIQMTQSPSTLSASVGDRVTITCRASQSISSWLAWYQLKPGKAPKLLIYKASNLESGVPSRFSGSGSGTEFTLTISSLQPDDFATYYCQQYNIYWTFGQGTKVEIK
11 min

Sample H1H6800P (antibody, human IgG1, V domains shown, human IgG1 Fc (H1H)) VH: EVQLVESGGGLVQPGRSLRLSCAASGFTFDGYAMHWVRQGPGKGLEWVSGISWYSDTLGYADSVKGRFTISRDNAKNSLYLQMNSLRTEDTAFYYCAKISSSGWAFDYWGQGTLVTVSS VL: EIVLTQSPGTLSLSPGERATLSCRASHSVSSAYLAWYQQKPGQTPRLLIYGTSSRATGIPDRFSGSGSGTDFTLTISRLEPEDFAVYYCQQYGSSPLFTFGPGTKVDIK — what was its T 1/2?
11 min

Please give the measured T 1/2 for this binder: H1H6959N2 (antibody, human IgG1, V domains shown, also called H2M6959N2) VH: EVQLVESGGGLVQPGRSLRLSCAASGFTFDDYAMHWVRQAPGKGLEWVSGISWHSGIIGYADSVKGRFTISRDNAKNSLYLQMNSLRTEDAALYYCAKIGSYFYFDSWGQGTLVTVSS VL: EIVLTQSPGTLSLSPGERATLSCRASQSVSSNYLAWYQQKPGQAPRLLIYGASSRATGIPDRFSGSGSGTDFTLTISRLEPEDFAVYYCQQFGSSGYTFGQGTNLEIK
0.7 min

Please give the measured T 1/2 for this binder: H1H6785P (antibody, human IgG1, V domains shown, human IgG1 Fc (H1H)) VH: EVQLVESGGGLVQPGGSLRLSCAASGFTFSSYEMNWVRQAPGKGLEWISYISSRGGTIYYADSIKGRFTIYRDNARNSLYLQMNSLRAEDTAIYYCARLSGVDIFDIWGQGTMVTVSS VL: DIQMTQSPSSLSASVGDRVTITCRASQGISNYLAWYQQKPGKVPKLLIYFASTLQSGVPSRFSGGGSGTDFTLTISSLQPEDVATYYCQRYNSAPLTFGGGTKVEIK
26 min
